All figures here come from patent US20230330254A1.

System: HEK293/CRE-Luc cells
Experiment: Luciferase reporter assay, HEK293/CRE-Luc cells without GLP1R (Example 17)
Type: cell-based, human
Conditions: HEK293/CRE-Luc cells without hGLP1R; payloads and linker-payloads
Where a SMILES comes first, the peptide text is derived from it. [ ]: non-standard residue; d: D form. Bip(2'-Et,4'-O(CH2)4N3) = CCc1cc(OCCCCN=[N+]=[N-])ccc1-c1ccc(C[C@H](N)C(=O)O)cc1; Nva(5-(3,5-Me2Ph)) = Cc1cc(C)cc(CCC[C@H](N)C(=O)O)c1; Ala(1H-tetrazol-5-yl) = N[C@@H](Cc1nnn[nH]1)C(=O)O; αMePhe(2-F) = C[C@](N)(Cc1ccccc1F)C(=O)O
Measure name: S/N
Enter a number only.

# annotated cases, reported S/N shown
{"Compound": "CCc1cc(OCCCCn2cc(COCCOCCOCCOCCNC(=O)OC[C@@H]3[C@@H]4CCC#CCC[C@@H]43)nn2)ccc1-c1ccc(C[C@H](NC(=O)[C@H](CC(=O)O)NC(=O)[C@H](CO)NC(=O)[C@@H](NC(=O)[C@](C)(Cc2ccccc2F)NC(=O)[C@@H](NC(=O)CNC(=O)[C@H](Cc2nn[nH]n2)NC(=O)C(C)(C)C(=O)NCCc2cnc[nH]2)[C@@H](C)O)[C@@H](C)O)C(=O)N[C@@H](CCCc2cc(C)cc(C)c2)C(N)=O)cc1 [LP9, BCN-PEG4-triazole-P8]", "Tgt": "HEK293/CRE-Luc cells", "S/N": 1.3}
{"Compound": "CCc1cc(OCCCCN=[N+]=[N-])ccc1-c1ccc(C[C@H](NC(=O)[C@H](CC(=O)O)NC(=O)[C@H](CO)NC(=O)[C@@H](NC(=O)[C@](C)(Cc2ccccc2F)NC(=O)[C@@H](NC(=O)CNC(=O)[C@@H](N)Cc2nn[nH]n2)[C@@H](C)O)[C@@H](C)O)C(=O)N[C@@H](CCCc2cc(C)cc(C)c2)C(N)=O)cc1 [M2383] (H-[Ala(1H-tetrazol-5-yl)]GT[αMePhe(2-F)]TSD[Bip(2'-Et,4'-O(CH2)4N3)][Nva(5-(3,5-Me2Ph))]-NH2)", "Tgt": "HEK293/CRE-Luc cells", "S/N": 1.8}

Below: the item to evaluate.
Sample CCc1cc(OCCCCN)ccc1-c1ccc(C[C@H](NC(=O)[C@H](CC(=O)O)NC(=O)[C@H](CO)NC(=O)[C@@H](NC(=O)[C@](C)(Cc2ccccc2F)NC(=O)[C@@H](NC(=O)CNC(=O)[C@H](Cc2nn[nH]n2)NC(=O)[C@@]2(C)CCN(CCc3cnc[nH]3)C2=O)[C@@H](C)O)[C@@H](C)O)C(=O)N[C@@H](CCCc2cc(C)cc(C)c2)C(N)=O)cc1 [P15] ; S/N observed: 1.1

* * *

Target: human GLP1R (Homo sapiens)
Test: Luciferase reporter assay, HEK293/CRE-Luc/hGLP1R (Example 17)
Assay type: cell-based
Parameters: engineered to express full-length human GLP1R, cynomolgus GLP1R; expressed in transfected cells; host or cells: HEK293/CRE-Luc
Conditions: HEK293/CRE-Luc/hGLP1R; relative to M2361 of the same experiment
Where a SMILES comes first, the peptide text is derived from it. [ ]: non-standard residue; d: D form. The star is where a group is joined. Bip(2'-Et,4'-O(CH2)4NH2) = CCc1cc(OCCCCN)ccc1-c1ccc(C[C@H](N)C(=O)O)cc1; Malonyl(2,2-Me2,histaminyl) = CC(C)(C(=O)NCCc1cnc[nH]1)C(=O)*; Nva(5-(3,5-Me2Ph)) = Cc1cc(C)cc(CCC[C@H](N)C(=O)O)c1; Ala(1H-tetrazol-5-yl) = N[C@@H](Cc1nnn[nH]1)C(=O)O; αMePhe(2-F) = C[C@](N)(Cc1ccccc1F)C(=O)O; NHPh = c1ccc(N*)cc1
Measure name: Relative Signal:Noise (% M2361) (%)
Hi! Could you send only the number? It should be in %, unit omitted.

Sample CCc1cc(OCCCCN)ccc1-c1ccc(C[C@H](NC(=O)[C@H](CC(=O)O)NC(=O)[C@H](CO)NC(=O)[C@@H](NC(=O)[C@](C)(Cc2ccccc2F)NC(=O)[C@@H](NC(=O)CNC(=O)[C@H](Cc2nn[nH]n2)NC(=O)C(C)(C)C(=O)NCCc2cnc[nH]2)[C@@H](C)O)[C@@H](C)O)C(=O)N[C@@H](CCCc2cc(C)cc(C)c2)C(=O)Nc2ccccc2)cc1 [P23] ({Malonyl(2,2-Me2,histaminyl)}-[Ala(1H-tetrazol-5-yl)]GT[αMePhe(2-F)]TSD[Bip(2'-Et,4'-O(CH2)4NH2)][Nva(5-(3,5-Me2Ph))]-NHPh) ; Relative Signal:Noise (% M2361) observed: 86.9

* * *

Biological target: human GLP1R (Homo sapiens, UniProt P43220)
Sequence (P43220 24-463): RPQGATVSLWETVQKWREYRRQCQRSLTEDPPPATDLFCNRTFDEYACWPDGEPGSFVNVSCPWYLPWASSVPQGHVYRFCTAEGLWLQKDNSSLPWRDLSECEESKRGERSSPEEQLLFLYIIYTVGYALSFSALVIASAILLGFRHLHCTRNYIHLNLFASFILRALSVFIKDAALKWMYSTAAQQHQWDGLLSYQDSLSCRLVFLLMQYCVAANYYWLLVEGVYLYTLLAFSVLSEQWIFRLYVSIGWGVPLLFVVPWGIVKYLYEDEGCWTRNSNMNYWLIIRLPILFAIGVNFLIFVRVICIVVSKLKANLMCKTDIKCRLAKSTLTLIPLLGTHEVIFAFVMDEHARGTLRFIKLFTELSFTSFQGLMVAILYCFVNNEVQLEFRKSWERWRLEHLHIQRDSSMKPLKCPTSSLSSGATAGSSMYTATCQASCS
Test: Luciferase reporter assay, HEK293/CRE-Luc/hGLP1R (Example 17)
Assay type: cell-based
Set-up: engineered to express full-length human GLP1R, cynomolgus GLP1R; expressed in transfected cells; host or cells: HEK293/CRE-Luc
Conditions: HEK293/CRE-Luc/hGLP1R; relative to M2361 of the same experiment
Where a SMILES comes first, the peptide text is derived from it. [ ]: non-standard residue; d: D form. Bip(2'-Et,4'-O(CH2)4NH2) = CCc1cc(OCCCCN)ccc1-c1ccc(C[C@H](N)C(=O)O)cc1; Nva(5-(3,5-Me2Ph)) = Cc1cc(C)cc(CCC[C@H](N)C(=O)O)c1; Ala(1H-tetrazol-5-yl) = N[C@@H](Cc1nnn[nH]1)C(=O)O; αMePhe(2-F) = C[C@](N)(Cc1ccccc1F)C(=O)O
Measure name: Relative Signal:Noise (% M2361) (%)
Hi! Could you send only the number? It should be in %, unit omitted.

{"Compound": "CCc1cc(OCCCCNC(=O)[C@H](CO)NC(=O)CNC(=O)CNC(=O)CNC(=O)CNC(=O)CCC(=O)N2Cc3ccccc3C#Cc3ccccc32)ccc1-c1ccc(C[C@H](NC(=O)[C@H](CC(=O)O)NC(=O)[C@H](CO)NC(=O)[C@@H](NC(=O)[C@](C)(Cc2ccccc2F)NC(=O)[C@@H](NC(=O)CNC(=O)[C@H](Cc2nn[nH]n2)NC(=O)C(C)(C)C(=O)NCCc2cnc[nH]2)[C@@H](C)O)[C@@H](C)O)C(=O)N[C@@H](CCCc2cc(C)cc(C)c2)C(N)=O)cc1 [LP6, DIBAC- suc-G4S- P9]", "U": "%", "Value reported": 99.9}
{"Compound": "CCc1cc(OCCCCN)ccc1-c1ccc(C[C@H](NC(=O)[C@H](CC(=O)O)NC(=O)[C@H](CO)NC(=O)[C@@H](NC(=O)[C@](C)(Cc2ccccc2F)NC(=O)[C@@H](NC(=O)CNC(=O)[C@H](Cc2nn[nH]n2)NC(=O)C2(C)CCN(CCc3cnc[nH]3)C2=O)[C@@H](C)O)[C@@H](C)O)C(=O)N[C@@H](CCCc2cc(C)cc(C)c2)C(N)=O)cc1 (stereo in doubt) [P14]", "U": "%", "Value reported": 113.9}

Sample CCc1cc(OCCCCNC(=O)[C@H](CO)NC(=O)CNC(=O)CNC(=O)CNC(=O)CNC(=O)CCC(=O)N2Cc3ccccc3C#Cc3ccccc32)ccc1-c1ccc(C[C@H](NC(=O)[C@H](CC(=O)O)NC(=O)[C@H](CO)NC(=O)[C@@H](NC(=O)[C@](C)(Cc2ccccc2F)NC(=O)[C@@H](NC(=O)CNC(=O)[C@H](Cc2nn[nH]n2)NC(=O)C(C)(C)C(N)=O)[C@@H](C)O)[C@@H](C)O)C(=O)N[C@@H](CCCc2cc(C)cc(C)c2)C(N)=O)cc1 [LP14, DIBAC- suc-G4S- P4] ; Relative Signal:Noise (% M2361) observed: 108.6

Sample CCc1cc(OCCCCN)ccc1-c1ccc(C[C@H](NC(=O)[C@H](CC(=O)O)NC(=O)[C@H](CO)NC(=O)[C@@H](NC(=O)[C@](C)(Cc2ccccc2F)NC(=O)[C@@H](NC(=O)CNC(=O)[C@H](CCC(N)=O)NC(=O)C(C)(C)C(=O)NCCc2cnc[nH]2)[C@@H](C)O)[C@@H](C)O)C(=O)N[C@@H](CCCc2cc(C)cc(C)c2)C(N)=O)cc1 [P21] ; Relative Signal:Noise (% M2361) observed: 89.5

Sample CCc1cc(OCCCCN)ccc1-c1ccc(C[C@H](NC(=O)[C@H](CC(=O)O)NC(=O)[C@H](CO)NC(=O)[C@@H](NC(=O)[C@](C)(Cc2ccccc2F)NC(=O)[C@@H](NC(=O)CNC(=O)[C@H](Cc2nn[nH]n2)NC(=O)[C@@H](N)CO)[C@@H](C)O)[C@@H](C)O)C(=O)N[C@@H](CCCc2cc(C)cc(C)c2)C(N)=O)cc1 [P7] (H-S[Ala(1H-tetrazol-5-yl)]GT[αMePhe(2-F)]TSD[Bip(2'-Et,4'-O(CH2)4NH2)][Nva(5-(3,5-Me2Ph))]-NH2) ; Relative Signal:Noise (% M2361) observed: 73.6
